Sourced from paper PMC9951552

# experimental system: cdc2-related protein kinase 5 (CRK5; PF3D7_0615500) (Plasmodium falciparum)
# Sequence (C6KSZ6 1-705): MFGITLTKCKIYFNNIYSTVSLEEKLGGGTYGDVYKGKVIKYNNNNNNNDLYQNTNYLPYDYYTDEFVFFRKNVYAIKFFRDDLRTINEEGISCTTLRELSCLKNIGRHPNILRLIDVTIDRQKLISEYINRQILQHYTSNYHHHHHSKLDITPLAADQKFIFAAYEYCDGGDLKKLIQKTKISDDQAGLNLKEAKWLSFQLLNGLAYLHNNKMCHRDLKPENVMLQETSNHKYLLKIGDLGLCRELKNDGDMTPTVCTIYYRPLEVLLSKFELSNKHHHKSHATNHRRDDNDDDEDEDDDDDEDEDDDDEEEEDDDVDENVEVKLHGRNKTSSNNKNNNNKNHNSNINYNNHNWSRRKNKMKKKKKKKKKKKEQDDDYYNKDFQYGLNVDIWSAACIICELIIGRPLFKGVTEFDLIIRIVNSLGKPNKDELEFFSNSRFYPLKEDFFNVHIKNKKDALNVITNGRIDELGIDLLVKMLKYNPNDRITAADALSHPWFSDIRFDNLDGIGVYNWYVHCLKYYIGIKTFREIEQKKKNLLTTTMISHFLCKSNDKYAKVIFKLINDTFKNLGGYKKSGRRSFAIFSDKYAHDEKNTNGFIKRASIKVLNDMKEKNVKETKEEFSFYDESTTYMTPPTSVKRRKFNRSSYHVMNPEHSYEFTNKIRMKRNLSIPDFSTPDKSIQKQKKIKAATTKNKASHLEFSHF
# assay name: Kinobead chemoproteomic competition binding, Pf3D7 ABS extract
# condition summary: read-out: Kd app for CRK5; Kinobeads, P. falciparum ABS extract
measured property: Kd

>>> print(df.to_string())
                                   molecule  result
0  CC(C)n1nc(-c2ccc3oc(N)nc3c2)c2c(N)ncnc21 [sapanisertib]  < 1 µM

----------
# experimental system: casein kinase 1 (CK1; PF3D7_1136500) (Plasmodium falciparum)
# Sequence (Q8IHZ9 whole entry): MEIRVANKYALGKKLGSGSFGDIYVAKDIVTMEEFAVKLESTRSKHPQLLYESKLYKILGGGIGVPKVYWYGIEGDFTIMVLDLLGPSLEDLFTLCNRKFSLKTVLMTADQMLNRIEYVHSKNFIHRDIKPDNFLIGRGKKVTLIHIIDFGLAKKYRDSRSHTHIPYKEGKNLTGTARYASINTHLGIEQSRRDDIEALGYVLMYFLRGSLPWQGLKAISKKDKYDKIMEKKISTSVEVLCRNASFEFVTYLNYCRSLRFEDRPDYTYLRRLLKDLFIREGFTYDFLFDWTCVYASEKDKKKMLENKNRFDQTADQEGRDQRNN
# assay name: Kinobead chemoproteomic competition binding, Pf3D7 ABS extract
measured property: Kd

In [3]: df
Out[3]:
                                 smiles_str  measured_property     result
0  CC(C)n1nc(-c2ccc3oc(N)nc3c2)c2c(N)ncnc21                 Kd  < 1000 nM
